Data origin: the Human Domainome abundance scans (Beltran et al. 2025)

B1: Transitional endoplasmic reticulum ATPase, residues 26 to 106; numbered along this chain, P55072 (parent)
chain: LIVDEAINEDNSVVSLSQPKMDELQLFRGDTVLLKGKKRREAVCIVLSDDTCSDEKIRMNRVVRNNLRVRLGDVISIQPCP

Variants of: B1
measurementDescription: abundance fitness (aPCA) (normalised: wild type 0, dead -1); higher = more abundant; growth selection in yeast, the domain comes from the species named
measurementSetup: Homo sapiens
parameter: abundance fitness

[ask] Which value of abundance fitness has been reported for L26W in the records?
[reply] -0.447

[ask] Look at this variant and give its reported abundance fitness. V14S
[reply] -0.801

[ask] Look up abundance fitness for this variant: P79L
[reply] -0.044

[ask] Value lookup for abundance fitness; key = V13E
[reply] -0.127

Further cases:
[ask] Query: abundance fitness; subject: K38F
[reply] -0.079

[ask] Need abundance fitness of R68E , thanks.
[reply] 0.047
